- test-details: Drug excretion in iv dosed human assessed as compound excreted into bile after 6 to 8 hrs by duodenal perfusion method
- Format: ADME, organism-based
- test-context: read-out: Drug excretion
measured-endpoint: dose excreted (%)

- compound: "CO/N=C(\\C(=O)N[C@@H]1C(=O)N2C(C(=O)O)=C(CSc3nc(=O)c(=O)[nH]n3C)CS[C@H]12)c1csc(N)n1 [CEFTRIAXONE]"
  measured-endpoint: "dose excreted"
  reading: 30

###

- test-details: Drug excretion in human assessed as compound excreted into bile at 1 gm, iv after 8 hrs by T-tube method
- Assay type: ADME, organism-based
- test-context: read-out: Drug excretion
measured-endpoint: dose excreted at 8 h

- compound: "CO[C@@]1(NC(=O)C(C(=O)O)c2ccc(O)cc2)C(=O)N2C(C(=O)O)=C(CSc3nnnn3C)CO[C@@H]21 (stereo partly specified)"
  measured-endpoint: "dose excreted at 8 h"
  reading: "0.5%"

Recorded values, source ChEMBL document CHEMBL3526096.
